koff values for the binders below.
# target.or.system: T1, human α-CGRP 1-37 (WT) (human, C-terminal amide; N-terminal biotin when captured on the SA chip; 125I-labelled in the radioligand assay)
# T1 construct: also called α-human
# T1 peptide: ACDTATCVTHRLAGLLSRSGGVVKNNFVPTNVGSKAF
# assay.explanation: Biacore, 37°C, Fab over CGRP on SA chip
Give the number; s⁻¹ is assumed, so skip it.

[[record]]
binder = "G1 variant M31 Fab (Fab, V domains shown, Fab; constant domains as m1) VH: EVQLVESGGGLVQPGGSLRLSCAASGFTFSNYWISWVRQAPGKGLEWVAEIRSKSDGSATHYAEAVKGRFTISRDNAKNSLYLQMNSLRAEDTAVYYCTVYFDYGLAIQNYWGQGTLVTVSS VL: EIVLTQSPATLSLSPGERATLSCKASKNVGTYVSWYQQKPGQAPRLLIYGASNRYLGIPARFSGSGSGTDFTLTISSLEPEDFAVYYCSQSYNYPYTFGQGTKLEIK"
observable = "koff"
reading = 0.000347


Could you now consider this next binder?
q: Entry G1 variant M26 Fab (Fab, V domains shown, Fab; constant domains as m1) VH: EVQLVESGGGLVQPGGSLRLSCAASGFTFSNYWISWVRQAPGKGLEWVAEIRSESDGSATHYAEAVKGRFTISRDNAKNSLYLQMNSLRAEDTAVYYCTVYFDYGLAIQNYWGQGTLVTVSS VL: EIVLTQSPATLSLSPGERATLSCKASKNVTTYVSWYQQKPGQAPRLLIYGASNRYLGIPARFSGSGSGTDFTLTISSLEPEDFAVYYCSQSYNYPYTFGQGTKLEIK : reported koff = ?
a: 0.000148
